Experiment: yeast display, Sf9 membrane polyspecificity reagent, FACS + sequencing; frameworks hold sequencing errors
Endpoint label: polyreactivity (PSR sort gate)

Recorded results for 5 sequences are shown here.
Residue sequence: QVQLVESGGGLVQAGGSLRLSCAASGRIFEGYAMGWYRQAPGKERELVAAITGSGGGTYYADSVKGRFTISRDNAKNTVYLQMNSLKPEDTAVYYCATAYSAYQHPYGYWGKGTQVTVSS
Observed measurement: low polyreactivity

Residue sequence: QVQLVESGGGLVQAGGSLRLSCAASGLILYYYAMGWYRQAPGKEREFVAAISGRGGSTYYADSVKGRFTISRDNAKNTVYLQMNSLKPEDTAVYYCAARVWYKYDHWGQGTQVTVSS
Observed measurement: high polyreactivity

Residue sequence: QVQLVESGGGLVQAGGSLRLSCAASGLTFQSYAMGWYRQAPGKEMELVATIYNGSSTYYAVSVKGRFTISRDNAKNTDYLQMNSLKPEDTAVYYCAKDYYYSRNALYGHDYWGQVTQVTVSS
Observed measurement: low polyreactivity

Residue sequence: QVQLVESGGRLVQAGGSLLLSCAASGSTIGYYDMGWYRQAPGKERELVASITKSGGTTRYADSVKGRFTISRDNAKNTVYLQMNSLKPEDTAVYYCNADRSLLYSRKIEYDYWGQGTQVTVRS
Observed measurement: low polyreactivity

Residue sequence: QVHLVESGGGLVQAGGSLRLSCDASGITFRRYGMGWYRQAPGKERELVATITSSVGSRTYYADSVKGRFTISRDNAKNTVYLQMNSLKPEDTAVYYCAADHRVYDYEYWGQVTQVTVSS
Observed measurement: low polyreactivity

Okay, here is my list. What is polyreactivity (PSR sort gate) for each of these?
1. QVQLVESGGGLVQAGGSLRLSCAASGSTFGYYTMGWYRQAPGKERELVAAISRSGGRTYYADSVKGRFTISRDNAKNAVYLQMNSLKPEDTAVYYCNADGTRYAGDDYWGQGTQVTVSS
2. QVQLVESVGGLVQAGGSLRLSCAASGSIFTENAMGWYRQAPGKERELVATITITGSTNYADSVKGRFTISRDNAKNTFYLQMNSLKPEDTEVYYCNADLYIAFSASAYDYWGQGTQVTVSS
3. QVQLEESGGGLVQAGGSLRLSCAASGSIFARNAMGWYRQAPGNERELVAAISTGGGSTYYADSVKGRFTISRDNAKNSVYLQMKSLKPEDTAVYYCNAGDTQIRFYYWGQGTQVSVSS
4. QVQLVESGGGLVQAGGSLRLSCAASGRTFRRYAMGWYRQAPGKERELVAAITRGTRTNYADSVKGRFTISRDNAKNTVYLQMNSLKPEDTAVYYCNARRFLYSGGAYQFYYWGQGTQVTVSS

Response:
1. high polyreactivity
2. low polyreactivity
3. low polyreactivity
4. low polyreactivity
